Origin of values: PubChem BioAssay (NCI)

Test system: HOP-62 NSCLC
Experiment: NCI-60 one-dose screen, 48 h
Conditions: 10 µM unless noted
Protocol: Growth inhibition of the HOP-62 human Non-Small Cell Lung tumor cell line is measured as a screen for anti-cancer activity. Cells are grown in 96 well plates and exposed to the test compound for 48 hours. Compounds are tested at a single concentration, which is 10^-5 M for most compounds. The reported endpoint is percent growth (GI% or GIPRCNT), where numbers from 0 - 100% represent growth inhibition, and numbers from -100% - 0 represent cell death. […]
This is part of a sample that, as a whole, favours compounds with a hit. Of some 83,000 tested, about 20% had one in any assay. The source made the active and inactive calls. Rule for the calls: active = growth percent below 10; inactive = the rest.
Possible outcomes: 1 for active, 0 for inactive

>>> category("OC(c1cc(C23CC4CC(CC(C4)C2)C3)nc2c(Cl)cc(Cl)cc12)C1CCCCN1 (stereo unspecified)")
1
>>> category("CN(C)c1ccc2cc3c(cc2c1)Oc1ccccc1N3.[Cl][Zn][Cl]")
0
>>> category("CN(C)c1ccc(/C=C/c2cc[n+](C)c(/C=C/c3ccc(N(C)C)cc3)c2)cc1")
0
>>> category("CC(=O)N1CC(=O)NC1=S")
0
>>> category("Oc1ccc2ccccc2c1N=Nc1nccs1")
0
>>> category("CCSc1nc2ccccc2o1")
0
